biological target: alpha-synuclein (natural human wildtype alpha-synuclein) (human, UniProt P37840 1-140); assay: BLI, ForteBio Octet QK; apparent kd
property: koff (s⁻¹)
Report only the number, with the unit s⁻¹ understood.

Humanized 1H7 H5L4 (Hu1H7VHv5-Hu1H7VLv4) (antibody, V domains shown) VH: QVQLVQSGAEVKKPGASVKVSCKASGYTFTSYYIHWVRQAPGQGLEWMGWIYPGSGNTKYSEKFKGRATMTADTSTSTAYMELRSLRSDDTAVYYCARDGSYGFAYWGQGTLVTVSS VL: DIQLTQSPSSLSASVGDRVTITCKASQSVDYDGDSYMNWYQQKPGKAPKFLIYAASNLESGVPSRFSGSGSGTDFTLTISSLQPEDFATYYCQQSNEDPFTFGQGTKLEIK
0.0019
Humanized 1H7 H4L4 (Hu1H7VHv4-Hu1H7VLv4) (antibody, V domains shown) VH: QVQLVQSGAEVKKPGASVKVSCKASGYSFTSYYIHWVRQAPGQGLEWIGWIYPGSGNTKYSEKFKGRATLTADTSTSTAYMELRSLRSDDTAVYFCARDGSYGFAYWGQGTLVTVSS VL: DIQLTQSPSSLSASVGDRVTITCKASQSVDYDGDSYMNWYQQKPGKAPKFLIYAASNLESGVPSRFSGSGSGTDFTLTISSLQPEDFATYYCQQSNEDPFTFGQGTKLEIK
0.0023
Humanized 1H7 H4L3 (Hu1H7VHv4-Hu1H7VLv3) (antibody, V domains shown) VH: QVQLVQSGAEVKKPGASVKVSCKASGYSFTSYYIHWVRQAPGQGLEWIGWIYPGSGNTKYSEKFKGRATLTADTSTSTAYMELRSLRSDDTAVYFCARDGSYGFAYWGQGTLVTVSS VL: DIQLTQSPSSLSASVGDRVTITCKASQSVDYDGDSYMNWYQQKPGKAPKFLICAASNLESGVPSRFSGSGSGTDFTLTISSLQPEDFATYYCQQSNEDPFTFGQGTKLEIK
0.002
Humanized 1H7 H1L3 (Hu1H7VHv1-Hu1H7VLv3) (antibody, V domains shown) VH: QVQLVQSGAELKKPGASVKVSCKASGYSFTSYYIHWVKQAPGQGLEWIGWIYPGSGNTKYSEKFKGRATLTADTSTSTAYMELRSLRSDDTAVYFCARDGCYGFAYWGQGTLVTVSS VL: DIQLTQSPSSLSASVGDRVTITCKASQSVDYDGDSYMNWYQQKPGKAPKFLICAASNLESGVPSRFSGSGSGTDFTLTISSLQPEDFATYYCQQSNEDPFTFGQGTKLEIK
0.00064
Humanized 1H7 H1L2 (Hu1H7VHv1-Hu1H7VLv2) (antibody, V domains shown) VH: QVQLVQSGAELKKPGASVKVSCKASGYSFTSYYIHWVKQAPGQGLEWIGWIYPGSGNTKYSEKFKGRATLTADTSTSTAYMELRSLRSDDTAVYFCARDGCYGFAYWGQGTLVTVSS VL: DIQLTQSPSSLSASVGDRVTITCKASQSVDYDGDSYMNWYQQKPGKAPKFLIYAASNLESGVPSRFSGSGSGTDFTLTISSLQPEDAATYYCQQSNEDPFTFGQGTKLEIK
0.009
Humanized 1H7 H1L4 (Hu1H7VHv1-Hu1H7VLv4) (antibody, V domains shown) VH: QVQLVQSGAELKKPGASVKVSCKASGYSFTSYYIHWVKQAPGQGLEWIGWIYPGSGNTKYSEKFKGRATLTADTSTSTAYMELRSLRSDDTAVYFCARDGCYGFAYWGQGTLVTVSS VL: DIQLTQSPSSLSASVGDRVTITCKASQSVDYDGDSYMNWYQQKPGKAPKFLIYAASNLESGVPSRFSGSGSGTDFTLTISSLQPEDFATYYCQQSNEDPFTFGQGTKLEIK
0.0058

[in] What value of measured koff is listed for Humanized 1H7 H5L2 (Hu1H7VHv5-Hu1H7VLv2) (antibody, V domains shown) VH: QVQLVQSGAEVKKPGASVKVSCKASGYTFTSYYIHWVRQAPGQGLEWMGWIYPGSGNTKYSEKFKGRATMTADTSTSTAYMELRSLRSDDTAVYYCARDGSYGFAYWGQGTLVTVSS VL: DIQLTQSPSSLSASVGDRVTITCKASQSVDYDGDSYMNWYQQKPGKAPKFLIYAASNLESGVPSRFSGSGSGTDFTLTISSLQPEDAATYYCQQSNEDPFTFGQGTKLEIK ?
[out] 0.0021

Source: patent US20130266517A1
